Target sequence: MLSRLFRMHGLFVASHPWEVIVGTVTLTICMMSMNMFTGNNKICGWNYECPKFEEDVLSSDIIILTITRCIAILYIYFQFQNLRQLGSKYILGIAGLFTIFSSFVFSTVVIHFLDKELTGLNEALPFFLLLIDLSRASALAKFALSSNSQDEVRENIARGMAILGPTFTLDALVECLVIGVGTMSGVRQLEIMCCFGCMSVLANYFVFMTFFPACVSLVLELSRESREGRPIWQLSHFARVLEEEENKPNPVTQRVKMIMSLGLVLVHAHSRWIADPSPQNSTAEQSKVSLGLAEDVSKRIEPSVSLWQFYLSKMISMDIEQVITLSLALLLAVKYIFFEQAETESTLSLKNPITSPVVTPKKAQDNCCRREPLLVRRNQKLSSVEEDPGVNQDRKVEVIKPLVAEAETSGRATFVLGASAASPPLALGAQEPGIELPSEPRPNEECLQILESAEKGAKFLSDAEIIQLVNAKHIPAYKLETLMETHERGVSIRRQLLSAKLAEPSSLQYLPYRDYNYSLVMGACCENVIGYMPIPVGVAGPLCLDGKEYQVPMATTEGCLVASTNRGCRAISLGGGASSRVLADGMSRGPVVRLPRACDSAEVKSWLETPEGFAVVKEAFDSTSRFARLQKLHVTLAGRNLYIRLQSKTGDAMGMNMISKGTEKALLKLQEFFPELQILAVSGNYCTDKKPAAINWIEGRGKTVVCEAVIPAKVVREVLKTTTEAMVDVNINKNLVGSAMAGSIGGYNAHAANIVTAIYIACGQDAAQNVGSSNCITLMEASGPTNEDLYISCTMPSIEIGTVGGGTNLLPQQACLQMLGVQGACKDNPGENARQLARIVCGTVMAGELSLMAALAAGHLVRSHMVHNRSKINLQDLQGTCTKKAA
RESULT TYPE: IC50 (nM)

smi=Cc1nn(C)c2nc(C(C)C)c(/C=C/[C@@H](O)C[C@@H](O)CC(=O)O)c(-c3ccc(F)cc3)c12 endpoint_result=10
